System: NQO1 specific enzyme activity in BEAS-2B cells (marker for NRF2 activation)
procedureText: BEAS-2B NQO1 MTT Assay
Format: cell-based
measurementParameters: Homo sapiens, BEAS-2B, 48 h, NQO1 specific activity induction, 48 hours with compound
Excerpt: NAD(P)H:quinone oxidoreductase 1 (NQO1), also called DT diaphorase, is a homodimeric FAD-containing enzyme that catalyzes obligatory NAD(P)H-dependent two-electron reductions of quinones and protects cells against the toxic and neoplastic effects of free radicals and reactive oxygen species arising from one-electron reductions. […] On day one, frozen BEAS-2B cells (ATCC) were thawed in a water bath, counted, and re-suspended at a concentration of 250,000 cells/mL. […]
measurementName: EC50

compoundString: CC[C@@H]1CN(Cc2cc([C@H](CCc3cn(CC)nn3)C(C)(C)C(=O)O)sc2C)S(=O)(=O)c2ccccc2O1
EC50: < 1 nM
//
compoundString: CC[C@@H]1CN(Cc2cc([C@@H](CCc3cn(CC)nn3)C(C)(C)C(=O)O)sc2C)S(=O)(=O)c2cccnc2O1
EC50: 1 to 10 nM
//
compoundString: CC[C@@H]1CN(Cc2cc([C@H](CC(=O)O)c3ccc4c(nnn4CC)c3C)sc2C)S(=O)(=O)c2cnccc2O1
EC50: 10 to 100 nM
//
compoundString: CC[C@@H]1CN(Cc2nc([C@@H](c3ccc4c(nnn4CC)c3C)C(C)(C)C(=O)O)sc2C)S(=O)(=O)c2cnccc2O1
EC50: < 1 nM
//
compoundString: CCn1nnc2c(C)c([C@H](c3cc(CN4C[C@@H](C)Cc5ncccc5S4(=O)=O)c(C)s3)C(C)(C)C(=O)O)ccc21
EC50: < 1 nM

# input compound: "CC[C@@H]1CN(Cc2cc([C@@H](c3ccc4c(nnn4CC)c3C)C(C)(C)C(=O)O)sc2Cl)S(=O)(=O)c2ccccc2O1" ; wanted: its EC50
< 1 nM

====

System: NQO1 specific enzyme activity in BEAS-2B cells (marker for NRF2 activation)
procedureText: BEAS-2B NQO1 MTT Assay
Format: cell-based
measurementParameters: Homo sapiens, BEAS-2B, 48 h, NQO1 specific activity induction, 48 hours with compound
measurementName: EC50

compoundString: CCn1nnc2c(C)c([C@H](c3cc(CN4C[C@@H](C)Cc5ccccc5S4(=O)=O)c(C)s3)C(C)(C)C(N)=O)ccc21
EC50: 10 to 100 nM
--
compoundString: CC[C@@H]1CN(Cc2cc([C@H](c3ccc4c(nnn4CC)c3F)C(C)(C)C(=O)O)sc2Cl)S(=O)(=O)c2ccccc2O1
EC50: 10 to 100 nM
--
compoundString: CCn1nnc2c(C)c([C@H](c3cc(CN4C[C@@H](C)Cc5ccccc5S4(=O)=O)c(C)s3)C(C)(C)C(=O)Nc3cccnc3)ccc21
EC50: 1 to 10 nM

# input molecule: "CC[C@@H]1CN(Cc2cc([C@@H](c3ccc4c(nnn4CC)c3C)C(C)(C)C(=O)O)sc2Cl)S(=O)(=O)c2cnccc2O1" ; wanted: its EC50
< 1 nM

Continue with "CC[C@@H]1CN(Cc2cc([C@@H](CCc3cn(CC)nn3)C(C)(C)C(=O)O)sc2C)S(=O)(=O)c2ccccc2O1"
1 to 10 nM

Continue with "CC[C@@H]1CN(Cc2cc([C@@H](c3ccc4c(nnn4CC)c3C)C(C)(C)C(=O)O)sc2C)Cc2ncccc2O1"
1 to 10 nM
